assayText: Drug concentration in the spinal cord by LC-MS/MS
Assay type: in vivo, Swiss Webster mouse pups
runConditions: Swiss Webster, mouse, ip, 50 mg/kg, one hour after the intraperitoneal injection
measurementName: concentration at 1 h

q: Please give the measured concentration at 1 h for this molecule: CC(C)n1ncc2c(C(=O)NCC3(C)CNC3)cc(C3CC3)nc21
a: ~575 ng/g

----------
System: EV-D68 US/MO/14-18947 passaged viruses
assayText: Serial passage experiment 1: drug sensitivity of passaged viruses
Type: cell-based, Enterovirus D68
runConditions: Enterovirus D, EVD68, P3 virus, selection pressure 400 nM; CPE assay
measurementName: EC50 (nM)
Supply the numeric figure in nM, leaving out any unit text.

q: Would you mind telling me what EC50 value was observed for CC(C)n1ncc2c(C(=O)NCC3(C)CNC3)cc(C3CC3)nc21 ?
a: 800
